assay: chemical genetic growth profiling, strain panel (AID 1159580);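 note: tested at 20 µM; growth read once vehicle control cultures reached saturation at 30 °C; lower values mean less growth of the strain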; details: S. cerevisiae deletion strains, growth OD, locus YER123W, strain YCK3, active compounds read low
Hit rate of the full screen: of about 5,500 compounds, about 2,000 (36%) were called active. Inconclusive results (about 18%) are left out. This is one part of the list.
Criterion: normalized growth strictly less than 0.9. Met: TRUE. Not met: FALSE.

O=c1c(Cl)c(-n2cccn2)cnn1-c1ccc(Cl)cc1Cl = TRUE

Take the compound O=C(NCCSCc1cccc(C(F)(F)F)c1)c1ccc(Cl)cc1 and say whether its normalized growth is less than 0.9. TRUE

Take the compound O=S(=O)(N/N=C\c1ccc(Cl)cc1)c1ccc(-c2ccccn2)s1 and say whether its normalized growth is less than 0.9. FALSE
